Target: human GLP-1 receptor (Homo sapiens)
Construct: HA (N); expressed in transfected cells
Sequence (P43220 24-463): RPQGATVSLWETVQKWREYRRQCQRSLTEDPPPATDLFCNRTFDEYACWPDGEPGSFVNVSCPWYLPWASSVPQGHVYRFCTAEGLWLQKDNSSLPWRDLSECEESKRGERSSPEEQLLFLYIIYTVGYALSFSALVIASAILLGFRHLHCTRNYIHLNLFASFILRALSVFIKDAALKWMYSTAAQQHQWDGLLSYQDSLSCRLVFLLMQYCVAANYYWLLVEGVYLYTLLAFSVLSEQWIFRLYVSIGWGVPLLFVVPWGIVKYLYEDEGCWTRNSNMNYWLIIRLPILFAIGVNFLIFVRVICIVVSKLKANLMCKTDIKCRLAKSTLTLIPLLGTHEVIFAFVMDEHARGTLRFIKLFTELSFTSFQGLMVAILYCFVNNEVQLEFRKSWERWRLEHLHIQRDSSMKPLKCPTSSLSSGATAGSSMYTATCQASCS
Experiment: GLP-1 receptor-mediated agonist activity: cAMP level in hGLP-1R/HEK293 cell line (HTRF)
Format: cell-based
Conditions: cAMP levels in hGLP-1R/HEK293 cell line; Table 1; read-out: determined EC50
pEC50: −log10 of the molar value.
Reported Property: pEC50

- Compound: "[2H]C([2H])([2H])Oc1cc(C(=O)O)cc2c1nc(CN1CCN(c3cccc4c3OC(C)(c3ccc(Cl)cc3OC)O4)C=N1)n2C[C@@H]1CCO1 (stereo partly shown) [Compound 84]"
  Result Number: 11.01
- Compound: "COc1cc(C#N)ccc1COc1ncccc1C1CCN(Cc2nc3c(OC)cc(C(=O)O)cc3n2C[C@@H]2CCO2)CC1 [Compound 34]"
  Result Number: 11.48
- Compound: "CCOc1cc(C(=O)O)cc2c1nc(CN1CCC(c3cccnc3OCc3ccc(Cl)cc3F)CC1)n2C[C@@H]1CCO1 [Compound 32]"
  Result Number: 10.85
- Compound: "CCOc1cc(C(=O)O)cc2c1nc(CN1CCN(c3cccc4c3OC(C)(c3ccc(Cl)cn3)O4)C=N1)n2C[C@@H]1CCO1 (stereo partly shown) [Compound 69]"
  Result Number: 10.95
- Compound: "CCOc1cc(C(=O)O)cc2c1nc(CN1CCN(c3cccc4c3OC(C)(c3ccc(Cl)cc3OC)O4)C=N1)n2C[C@@H]1CCO1 (stereo partly shown) [Compound 85]"
  Result Number: 11.30

A: CCOc1cc(C(=O)O)cc2c1nc(CN1CCC(c3cccc(OCc4ccc(Cl)cc4F)n3)CC1)n2C[C@@H]1CCO1 [Compound 29]
B: [2H]C([2H])([2H])Oc1cc(C(=O)O)cc2c1nc(CN1CCN(c3cccc4c3OC(C)(c3ccc(Cl)cc3F)O4)C=N1)n2C[C@@H]1CCO1 (stereo partly shown) [Compound 71]
stdin: Which record shows the lower pEC50: the first, A , or the second, B ? Identify your selection by its label.
stdout: B

###

Target: human GLP-1 receptor (Homo sapiens)
Construct: HA (N); expressed in transfected cells
Assay: GLP-1 receptor-mediated agonist activity: cAMP level in hGLP-1R/HEK293 cell line (HTRF)
Format: cell-based
Settings: cAMP levels of the hGLP-1R/HEK293 cell line; Table 2, comparison with reference compounds; read-out: EC50
Reported Property: EC50 (nM)

- Compound: "N#Cc1ccc(COc2cccc(C3CCN(Cc4nc5c(F)cc(C(=O)O)cc5n4C[C@@H]4CCO4)CC3)n2)c(F)c1 [WO2022109182 , Example 21, reference compound]"
  Result Number: 0.0261
- Compound: "CC1(c2ccc(Cl)cc2F)Oc2cccc(C3CCN(Cc4nc5ccc(C(=O)O)cc5n4C[C@@H]4CCO4)CC3)c2O1 (some centres unmarked) [WO2019239319 , Example 7, reference compound]"
  Result Number: 0.022

1: O=C(O)c1ccc2nc(CN3CCC(c4cccnc4OCc4ccc(Cl)cc4F)CC3)n(C[C@@H]3CCO3)c2c1 [WO2019239371 , Example 1, reference compound]
2: O=C(O)c1ccc2nc(CN3CCN(c4cccc(OCc5ccc(Cl)cc5F)n4)CC3)n(C[C@@H]3CCO3)c2c1 [WO2018109607 , Example 10A-08, reference compound]
3: CC1(c2ccc(Cl)cn2)Oc2cccc(N3C=NN(Cc4nc5ccc(C(=O)O)cc5n4C[C@@H]4CCO4)CC3)c2O1 (some centres unmarked) [CN2022114139828 , Compound 36, reference compound]
stdin: rank_up(items): orders items by reported EC50 in ascending numerical order. Kindly provide the labels arranged according to the requested ordering.
stdout: 2, 1, 3
(2: 0.0289 nM, 1: 0.0458 nM, 3: 0.336 nM)
